System: 786-0
Test: NCI tumour cell line growth inhibition, 48 h
The source made the active and inactive calls. Cut-off read from the data, not from the text of the source: active = GI50 up to about 1.1 µM and inactive = higher.
Assign a class; possible classes are 1 (yes) = active, 0 (no) = inactive

Study these solved cases before continuing.
| compound | labelClass |
| --- | --- |
| Cc1c(CN2CCN(C)CC2)c(CN2CCN(C)CC2)c(C)n1-c1ccc(Cl)cc1 | 0 (no) |
| CC(=O)OC(C)(C)C1CCC(C)(C(O)COc2ccc(CCNC(=O)c3ccccc3)cc2)O1 (stereo not given) | 0 (no) |
| COc1cc(N(C)C)ccc1C=c1c2ccccc2n2c1cc(-c1ccccc1)[n+]2C | 1 (yes) |
| NS(=O)(=O)c1cc(S(N)(=O)=O)c(NC(=O)Nc2ccc(Cl)c(Cl)c2)c(Cl)c1Cl | 0 (no) |
| Cc1cc(S(=O)(=O)Nc2nc3cscc3c(=O)n2N)c(S)cc1Cl | 0 (no) |
| O=C(/C=C/c1ccccc1)c1cc(C(=O)/C=C/c2ccccc2)c(O)cc1O | 0 (no) |
| Cc1c(O)ccc2c(O)c(NC(=O)c3ccc4c(c3)CCC(C)(C)O4)c(=O)oc12 | 0 (no) |
| CSc1nc2c(N)ncnc2n1C | 0 (no) |

Pending compound:
Just curious, what result did `CCN(CC)C(=S)Oc1cc2oc(=O)cc(C)c2cc1Cl` get here?
0 (no)

Reference source: ChEMBL document CHEMBL1201862
